- Target: natural suppressor cells (Mus musculus)
- Construct: cAMP accumulation
- Sequence (P97292 whole entry): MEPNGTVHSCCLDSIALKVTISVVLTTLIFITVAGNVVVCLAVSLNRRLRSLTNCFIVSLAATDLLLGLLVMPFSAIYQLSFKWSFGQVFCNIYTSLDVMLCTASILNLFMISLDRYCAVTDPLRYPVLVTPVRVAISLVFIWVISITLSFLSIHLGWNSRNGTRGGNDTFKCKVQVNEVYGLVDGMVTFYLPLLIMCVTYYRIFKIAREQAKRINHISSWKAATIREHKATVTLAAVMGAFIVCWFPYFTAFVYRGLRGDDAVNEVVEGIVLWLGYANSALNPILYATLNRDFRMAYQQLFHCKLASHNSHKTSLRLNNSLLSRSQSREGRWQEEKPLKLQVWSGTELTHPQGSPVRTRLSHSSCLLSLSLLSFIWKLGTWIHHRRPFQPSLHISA
- Test protocol: Effects of histamine derivatives on cAMP accumulation in natural suppressor (NS) cells
- Condition parameters: NS cells
- Source text: NS cells were obtained and cultured as follows: four-to six-month old BALB/c mice were anesthetized with pentobarbital and all major lymphoid organs, including all major lymph nodes, the spleen, and the thymus, were irradiated as described by Slavin et al., Science (1976) 193:1252. The skull, lungs, and hind legs were shielded with lead. The mice were given 200 rad per day, 5 times per week, to a total dose of 3400 rad. […]
Measure: EC50 (µM)
One number for each entry, in µM.

Value wanted: EC50 (natural suppressor cells (Mus musculus)) of entry CN(C)CCCSC(=N)N [Dimaprit, reference compound]
60

Entry source: patent USRE35224E
